FYI, the data here is from patent US20220073643A1.

- target.system: T1, human Claudin18.2 (human)
- T1 construct: also called CLDN18.2
- run.description: FACS, Claudin18.2-HEK293 cells
Here, each record is paired with measured EC50 data.
Answer with a number only, understood to be in µg/mL.

// known answers, use as guide
- binder: "humanized 410H6H3-VH1 + VL1 (antibody, human IgG1, kappa, V domains shown, humanized, human IgG1/kappa constant regions) VH: EVQLVESGGGLVQPGGSLRLSCAASGFTFSSSGMHWVRQAPGKGLEWVSYISSGSNTIYYADTLKGRFTISRDNAKNSLYLQMNSLRAEDTAVYYCARIYYGNSFVYWGQGTLVTVSS VL: DIVMTQSPDSLAVSLGERATINCKSSQSLLNSGNQKNYLTWYQQKPGQPPKLLIYWASTRESGVPDRFSGSGSGTDFTLTISSLQAEDVAVYYCQNNYYYPLTFGQGTKLEIKR"
  assay.result: 0.33
- binder: "chimeric 370E2B12C3 (antibody, human IgG1, kappa, V domains shown, chimeric, human IgG1/kappa constant regions; also called 370E2B12C3-chimeric) VH: QVQLKESGPGLVAPSQSLSITCTVSGFSLTTYGVHWVRQPPGKGLEWLGVIWAGGSTNYNSALMSRVSINKDNSKSQVFIKMNSLQADDTALYYCARAAYYGNGLDYWGQGTTLTVSS VL: DIVMTQSPSSLTVTAGEKVTMSCKSSQTLLNSGNQKNYLTWYQQKPGQPPKLLIYWASTGESGVPDRFTGSGSGTDFTLTISSVQAEDLAVYFCQNAYFYPFTFGGGTKLEIKR"
  assay.result: 0.772
- binder: "chimeric 410H6H3 (antibody, human IgG1, kappa, V domains shown, chimeric, human IgG1/kappa constant regions; also called 410H6H3-Chimeric) VH: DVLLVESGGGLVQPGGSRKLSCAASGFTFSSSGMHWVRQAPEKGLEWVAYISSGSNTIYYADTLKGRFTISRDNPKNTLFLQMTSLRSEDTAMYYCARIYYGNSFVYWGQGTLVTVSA VL: DIVMTQSPSSLTVTAGEKVIMSCKSSQSLLNSGNQKNYLTWYQQKPGQPPKMLIYWASTRESGVPDRFRGSGSGTDFTLTISSVQAEDLAVYYCQNNYYYPLTFGTGTKLALKR"
  assay.result: 0.843
- binder: "humanized 412B6E4-VH1.2 + VL1.1 (antibody, human IgG1, kappa, V domains shown, humanized, human IgG1/kappa constant regions) VH: EVQLVESGGGLVQPGGSRRLSCAASGFTFSSFGVHWVRQAPGKGLEWVSYISSGSSTIYYAHSVKGRFTISRDNAKNTLFLQMNSLRAEDTAVYYCARFYYGNSFAYWGQGTLVTVSS VL: DIVMTQSPDSLAVSLGERATMSCKSSQSLLNSGNQKNYLTWYQQKPGQPPKMLIYWASTRESGVPDRFSGSGSGTDFTLTISSLQAEDVAVYYCQNAYTYPLTFGQGTKLEIKR"
  assay.result: 0.512
- binder: "humanized 207F8G5-VH1.3 + VL1.1 (antibody, human IgG1, kappa, V domains shown, humanized, human IgG1/kappa constant regions) VH: QVQLVQSGAEVKKPGASVKVSCKASGFTFTSYNIHWVRQAPGQGLEWIGYISPGNGGSNYNLKFKDRATMTSDTSISTAYMELSRLRSDDTAVYFCATGRGFAYWGQGTLVTVSS VL: DIVMTQSPDSLAVSPGERATMSCKSSQSLFNSGNQKNYLIWYQQKPGQPPKLLIYRASTRDSGVPDRFSGSGSGTDFTLTISSLQAEDVAVYYCQNDYSYPLTFGGGTKLEIKR"
  assay.result: 0.143

Now examine the next entry.
Would you kindly share the measured EC50 for humanized 370E2B12C3-VH3 + VL1 (antibody, human IgG1, kappa, V domains shown, humanized, human IgG1/kappa constant regions) VH: QVQLVESGGGVVQPGRSLRLSCAASGFSLTTYGVHWVRQAPGKGLEWVAVIWAGGSTNYNSALMSRFTISRDNSKNTLYLQMNSLRAEDTAVYYCARAAYYGNGLDYWGQGTMVTVSS VL: DIVMTQSPDSLAVSLGERATINCKSSQTLLNSGNQKNYLTWYQQKPGQPPKLLIYWASTGESGVPDRFSGSGSGTDFTLTISSLQAEDVAVYYCQNAYFYPFTFGGGTKLEIKR ?
0.826
